assay: Pharmacokinetics in mice, i.v. and oral; assay type: in vivo, CD-1 mice; settings: male, CD-1, plasma; mouse oral 1 mg/kg

{"columns": ["Compound", "Tmax (h)"],
 "data": [
  ["COc1cc(N[C@H](C(=O)c2c[nH]c3ccc(OC(F)(F)F)cc23)c2ccc(Cl)cc2OC)cc(S(C)(=O)=O)c1 [JNJ-1802]", 5]
]}

====

experiment: Pharmacokinetics in mice, i.v. and oral; type: in vivo, CD-1 mice; settings: male, CD-1, plasma; mouse oral 10 mg/kg
Outcome measure: Tmax

{"columns": ["Smiles repr", "Outcome measure", "Assay result"],
 "data": [
  ["COc1cc(N[C@H](C(=O)c2c[nH]c3ccc(OC(F)(F)F)cc23)c2ccc(Cl)cc2OC)cc(S(C)(=O)=O)c1", "Tmax", "7 h"]
]}

====

test system: DENV-2 RL; experiment: microbe, parasite or virus in culture; format: cell-based; details: Dengue virus, DENV2, Vero, read-out: EC50 by microscopic evaluation of CPE, experiment A, passage 0
pEC50: −log10 of the molar value.

{"columns": ["Compound", "Experimental target", "pEC50"],
 "data": [
  ["COc1cc(N[C@H](C(=O)c2c[nH]c3ccc(OC(F)(F)F)cc23)c2ccc(Cl)cc2OC)cc(S(C)(=O)=O)c1 [JNJ-1802]", "DENV-2 RL", 10.22]
]}

====

assay: in vivo; details: both, Indian-origin, rhesus monkey, po, 0.18 mg/kg, Cmax

{"columns": ["Compound", "Cmax / ng/mL"],
 "data": [
  ["COc1cc(N[C@H](C(=O)c2c[nH]c3ccc(OC(F)(F)F)cc23)c2ccc(Cl)cc2OC)cc(S(C)(=O)=O)c1 [JNJ-1802]", 15.1]
]}

====

system: CHIKV S27; assay: CPE inhibition assay ATPLite, Huh-7; type: cell-based; details: Chikungunya virus, Huh-7
pEC50: −log10 of the molar value.

{"columns": ["Compound", "pEC50"],
 "data": [
  ["COc1cc(N[C@H](C(=O)c2c[nH]c3ccc(OC(F)(F)F)cc23)c2ccc(Cl)cc2OC)cc(S(C)(=O)=O)c1 [JNJ-1802]", "< 4.60"]
]}

====

assay: in vitro; settings: dog, CC50

{"columns": ["Smiles repr", "CC50"],
 "data": [
  ["COc1cc(N[C@H](C(=O)c2c[nH]c3ccc(OC(F)(F)F)cc23)c2ccc(Cl)cc2OC)cc(S(C)(=O)=O)c1", "2600 nM"]
]}

====

tested on: DENV-2 RL; assay: microbe, parasite or virus in culture; assay type: cell-based; conditions: Dengue virus, DENV2, Vero, read-out: EC50 values Ave, B sample, passage 49
pEC50: −log10 of the molar value.
Outcome measure: pEC50

{"columns": ["Compound", "Experimental target", "Assay result"],
 "data": [
  ["COc1cc(N[C@H](C(=O)c2c[nH]c3ccc(OC(F)(F)F)cc23)c2ccc(Cl)cc2OC)cc(S(C)(=O)=O)c1 [JNJ-1802]", "DENV-2 RL", 5.89]
]}

====

assay: Plasma protein binding; format: in vitro ADME; conditions: mouse, mice
Outcome measure: fraction unbound

{"columns": ["Compound", "Assay result"],
 "data": [
  ["COc1cc(N[C@H](C(=O)c2c[nH]c3ccc(OC(F)(F)F)cc23)c2ccc(Cl)cc2OC)cc(S(C)(=O)=O)c1 [JNJ-1802]", "< 0.001"]
]}
